molecular target: human steroid 5-α-reductase (Homo sapiens, UniProt P31213)
Sequence (P31213 whole entry): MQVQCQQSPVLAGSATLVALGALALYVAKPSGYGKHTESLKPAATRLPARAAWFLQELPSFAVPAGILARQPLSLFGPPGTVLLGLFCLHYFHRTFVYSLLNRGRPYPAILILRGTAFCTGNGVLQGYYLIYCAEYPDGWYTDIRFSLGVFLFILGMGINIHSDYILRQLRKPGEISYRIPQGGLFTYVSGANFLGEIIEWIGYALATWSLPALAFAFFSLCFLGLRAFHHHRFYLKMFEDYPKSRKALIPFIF
pKi: −log10 of the molar value.
REPORTED_PROPERTY: pKi

COMPOUND_STRUCTURE	REPORTED_PROPERTY	READOUT_NUMBER
CC(C)N(C(=O)[C@H]1CC[C@H]2[C@@H]3CCc4cc(S(=O)(=O)O)ccc4[C@H]3CC[C@]12C)C(C)C	pKi	8.00
